- Tgt: PRMT5 (Homo sapiens)
- Construct: purchased Viva (custom protein)
- Assay notes: PRMT5 biochemical IC50 assay with SAM as cofactor
- Protocol conditions: PRMT5, SAM as cofactor; read-out: SAM IC50
Collected IC50 values appear next to each entry.

Compound	IC50
COc1ncc(NC(=O)C(=O)N2C[C@@H](C)CC[C@@H]2c2ccc3sc(C4CC5(C4)CN(C)C5)nc3c2)cc1C(N)=O	< 0.05 µM
CCc1cc(NC(=O)C(=O)N2C[C@@H](C)CC[C@@H]2c2ccc3sc(C(F)(F)F)nc3c2)cnc1N (single isomer, unassigned)	0.05 to 0.5 µM
COc1ncc(NC(=O)C(=O)N2C[C@@H](C)CC[C@@H]2c2cccs2)cc1C(N)=O (single isomer, unassigned)	0.05 to 0.5 µM

---

# IC50 per record follows
- Tgt: PRMT5 (Homo sapiens)
- Construct: purchased Viva (custom protein)
- Assay notes: PRMT5 biochemical IC50 assay with MTA as cofactor
- Protocol conditions: PRMT5, MTA as cofactor; read-out: MTA IC50
Metric: IC50

Compound	Reported measurement
C[C@@H]1CC[C@@H](c2ccc(F)c(Cl)c2)N(C(=O)C(=O)Nc2cncc(C(N)=O)c2)C1 (racemic) [Compound 338]	50 to 500 nM
C[C@@H]1CC[C@@H](c2ccc(Cl)c(Cl)c2)N(C(=O)C(=O)Nc2cncc(C(N)=O)c2)C1 (single isomer, unassigned) [Compound 489]	> 500 nM
C[C@@H]1CC[C@@H](c2ccc(F)c(C(F)(F)F)c2)N(C(=O)C(=O)Nc2cncc(C(N)=O)c2)C1 (racemic)	< 50 nM
C[C@H]1CC[C@H](c2ccc3sc(CCN(C)C)nc3c2)N(C(=O)C(=O)Nc2cnc(N)c(C3CC3)c2)C1 (single isomer, unassigned)	> 500 nM
C[C@H]1CC[C@H](c2cccs2)N(C(=O)C(=O)Nc2cncc(C(N)=O)c2)C1 (single isomer, unassigned)	< 50 nM
CCc1cc(NC(=O)C(=O)N2CC(C)CCC2c2ccc3sc(C4CCN(C)CC4C)nc3c2)cnc1N (racemic) [Compound 1373]	< 50 nM
CCc1cc(NC(=O)C(=O)N2C[C@@H](C)CC[C@@H]2c2ccc(N3CCN(C(C)C)CC3)cc2)cnc1N (single isomer, unassigned)	< 50 nM
C[C@H]1CC[C@H](c2ccn(-c3cc[nH]n3)n2)N(C(=O)C(=O)Nc2cncc(C(N)=O)c2)C1 (single isomer, unassigned)	> 500 nM
NC(=O)c1cncc(NC(=O)C(=O)N2CC[C@H]3C[C@@H](O)CC[C@@H]3C2)c1 (racemic)	50 to 500 nM
COc1ncc(NC(=O)C(=O)N2C[C@@H](C)CC[C@@H]2c2ccc3sc([C@H]4CCN(C)C4)nc3c2)cc1C(N)=O (racemic)	< 50 nM
CCc1cc(NC(=O)C(=O)N2C[C@@H](C)CC[C@@H]2c2ccc3sc(C45CCC(CC4)N(C)C5)nc3c2)cnc1N	< 50 nM
Cc1cc(NC(=O)C(=O)N2C[C@H](C)CC[C@H]2c2cccc(Cl)c2)cnc1N (single isomer, unassigned)	> 500 nM
C[C@@H]1CC[C@@H](c2ccccc2)N(C(=O)C(=O)Nc2cnc(O)c(C(N)=O)c2)C1 (racemic)	50 to 500 nM

---

- Tgt: PRMT5 (Homo sapiens, UniProt O14744)
- Construct: purchased Viva (custom protein)
- Sequence (O14744 whole entry): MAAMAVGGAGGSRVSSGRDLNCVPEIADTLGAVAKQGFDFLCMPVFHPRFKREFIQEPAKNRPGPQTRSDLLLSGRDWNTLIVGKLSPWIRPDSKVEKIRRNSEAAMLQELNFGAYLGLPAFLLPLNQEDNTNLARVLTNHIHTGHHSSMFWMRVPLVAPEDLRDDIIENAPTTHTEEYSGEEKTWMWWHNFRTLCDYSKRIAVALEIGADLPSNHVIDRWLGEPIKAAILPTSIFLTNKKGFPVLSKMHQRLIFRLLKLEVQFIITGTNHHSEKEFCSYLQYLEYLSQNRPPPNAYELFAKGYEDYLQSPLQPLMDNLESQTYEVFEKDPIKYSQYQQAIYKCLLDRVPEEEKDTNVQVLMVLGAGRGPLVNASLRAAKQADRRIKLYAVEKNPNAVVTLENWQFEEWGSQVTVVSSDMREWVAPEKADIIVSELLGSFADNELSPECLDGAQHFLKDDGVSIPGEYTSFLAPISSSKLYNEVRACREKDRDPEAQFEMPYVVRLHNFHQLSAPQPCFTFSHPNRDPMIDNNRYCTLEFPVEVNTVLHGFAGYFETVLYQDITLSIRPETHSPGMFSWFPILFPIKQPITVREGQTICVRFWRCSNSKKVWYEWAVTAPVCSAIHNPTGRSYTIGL
- Sequence (Q9BQA1 whole entry partner): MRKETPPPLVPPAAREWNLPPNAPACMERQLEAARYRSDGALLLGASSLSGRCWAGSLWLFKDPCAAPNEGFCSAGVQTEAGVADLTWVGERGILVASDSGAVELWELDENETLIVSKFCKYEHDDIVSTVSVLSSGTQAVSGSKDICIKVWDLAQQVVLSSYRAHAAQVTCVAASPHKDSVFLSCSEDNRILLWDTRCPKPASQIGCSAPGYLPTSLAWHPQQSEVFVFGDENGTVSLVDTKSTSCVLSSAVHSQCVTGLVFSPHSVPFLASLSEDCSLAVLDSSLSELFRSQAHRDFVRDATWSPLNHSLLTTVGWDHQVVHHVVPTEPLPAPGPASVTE
- Assay notes: PRMT5 biochemical IC50 assay with SAM as cofactor
- Protocol conditions: PRMT5, SAM as cofactor; read-out: SAM IC50
pIC50: −log10 of the molar value.

Compound	pIC50
CC[C@H]1CC[C@@H](c2ccccc2)N(C(=O)C(=O)Nc2cncc(C)c2)C1 (single isomer, unassigned)	< 6.30
COc1ncc(NC(=O)C(=O)N2C[C@@H](C)CC[C@@H]2c2ccc(NS(C)(=O)=O)cc2)cc1C(N)=O (single isomer, unassigned)	< 6.30
CNC(=O)c1ccc([C@H]2CC[C@H](C)CN2C(=O)C(=O)Nc2cnc(OC)c(C(N)=O)c2)s1 (single isomer, unassigned)	6.30 to 7.30
COc1ncc(NC(=O)C(=O)N2C[C@H](C)CC[C@H]2c2cc3[nH]ncc3s2)cc1C(N)=O (single isomer, unassigned)	< 6.30
C[C@H]1CC[C@H](c2ccc(Cl)cc2)N(C(=O)C(=O)Nc2cncc(C(N)=O)c2)C1 (single isomer, unassigned)	< 6.30
CC(=O)N[C@H]1CC[C@@H]([C@@H]2CC[C@@H](C)CN2C(=O)C(=O)Nc2cnc(N)c(C)c2)CC1 (single isomer, unassigned)	< 6.30
C[C@H]1CC[C@H](c2cn[nH]c2)N(C(=O)C(=O)Nc2cncc(C(N)=O)c2)C1 (single isomer, unassigned)	6.30 to 7.30
Cc1cc(NC(=O)C(=O)N2C[C@H](C)CC[C@H]2[C@H]2CC3(C[C@H](C(N)=O)C3)C2)cnc1N (mixture of isomers)	< 6.30
CNc1cccc([C@@H]2CCCCN2C(=O)C(=O)Nc2cncc(C(N)=O)c2)c1 (single isomer, unassigned)	6.30 to 7.30
COc1ncc(NC(=O)C(=O)N2CCCCC2C2CCCC2)cc1C(N)=O (single isomer, unassigned) [Compound 289]	< 6.30
Cc1cc(NC(=O)C(=O)N2C[C@H](C)CC[C@H]2c2cc(F)c(F)c(F)c2)cnc1N (single isomer, unassigned)	6.30 to 7.30
Cc1ccc([C@H]2CC(F)(F)[C@H](C)CN2C(=O)C(=O)Nc2cncc(C(N)=O)c2)cn1 (single isomer, unassigned)	6.30 to 7.30
COc1ncc(NC(=O)C(=O)N2C[C@@H](C)CC[C@@H]2c2cnc3[nH]ncc3c2)cc1C(N)=O (single isomer, unassigned)	< 6.30
Cc1cccc2cc([C@@H]3CC[C@@H](C)CN3C(=O)C(=O)Nc3cncc(C(N)=O)c3)cnc12 (racemic)	< 6.30
Cc1cc(NC(=O)C(=O)N2C[C@H](C)CC[C@H]2c2ccc(-c3cn[nH]c3)cc2)cnc1N (racemic) [Compound 525]	< 6.30
CCc1cc(NC(=O)C(=O)N2C[C@H](C)CC[C@H]2c2ccc(NS(C)(=O)=O)cc2)cnc1N (single isomer, unassigned)	< 6.30
C[C@H]1C[C@@H](C)[C@H](c2ccccc2)N(C(=O)C(=O)Nc2cncc(C(N)=O)c2)C1 (single isomer, unassigned)	< 6.30
CCc1cc(NC(=O)C(=O)N2C[C@@H](C)CC[C@@H]2c2ccc3sc([C@H]4CCCN(C)C4)nc3c2)cnc1N	> 7.30
NC(=O)c1cncc(NC(=O)C(=O)N2CCCCC2C2CCC2)c1 (stereo not shown)	6.30 to 7.30
CNc1ccc([C@@H]2CC[C@@H](C)CN2C(=O)C(=O)Nc2cncc(C(N)=O)c2)nc1 (racemic)	6.30 to 7.30
C[C@@H]1CC[C@@H]([C@H]2CCC[C@H](O)C2)N(C(=O)C(=O)Nc2cncc(C(N)=O)c2)C1 (single isomer, unassigned)	< 6.30
CO[C@H]1C[C@H](c2ccc3scnc3c2)N(C(=O)C(=O)Nc2cnc(N)c(C3CC3)c2)C[C@H]1C (single isomer, unassigned)	6.30 to 7.30
COc1ncc(NC(=O)C(=O)N2CCCCC2c2ccccc2)cc1C(N)=O (single isomer, unassigned) [Compound 202]	6.30 to 7.30
Cc1cc(NC(=O)C(=O)N2C[C@H](C)CC[C@H]2[C@H]2CCC[C@H](O)C2)cnc1N (single isomer, unassigned)	6.30 to 7.30
C[C@H]1CC[C@@H](C2CCCCC2)N(C(=O)C(=O)Nc2cncc(C(N)=O)c2)C1 (single isomer, unassigned)	6.30 to 7.30
